experiment: isobaric coefficient of expansion; details: 288.15 K; 50000 kPa; Liquid; DSC with Pressure Shift
Measured metric: isobaric coefficient of expansion

Query: Give its isobaric coefficient of expansion value. Item: CCCCCN [1-pentanamine]
Response: 0.000925 1/K

====

assay: isobaric coefficient of expansion; conditions: 338.15 K; 55000 kPa; Liquid; DSC with Pressure Shift
// values below are reported isobaric coefficient of expansion

As a guide, the following entries are already answered.
# Compound, isobaric coefficient of expansion
records = [
    ("CCO [ethanol]", "0.000891 1/K"),
    ("CCCO [propan-1-ol]", "0.000837 1/K"),
    ("CCCC(C)O (stereo unspecified) [pentan-2-ol]", "0.000866 1/K"),
    ("CCCCCO [pentan-1-ol]", "0.000755 1/K"),
    ("CCCCCN [1-pentanamine]", "0.000899 1/K"),
    ("CCCCCCCCCO [nonan-1-ol]", "0.000695 1/K"),
    ("CCCCCCCCCCO [decan-1-ol]", "0.000689 1/K"),
    ("CCC(O)CC [3-pentanol]", "0.00091 1/K"),
    ("CCCCCCCO [heptan-1-ol]", "0.000725 1/K"),
    ("CCCCCCO [hexan-1-ol]", "0.000744 1/K"),
]

Kindly review the next compound as well.
Query: Give its isobaric coefficient of expansion value. Item: CCCCCCCCO [octan-1-ol]
Response: 0.000705 1/K

====

test: isobaric coefficient of expansion; conditions: 308.15 K; 15000 kPa; Liquid; DSC with Pressure Shift
Measured metric: isobaric coefficient of expansion

As a guide, the following entries are already answered.
# Molecule, isobaric coefficient of expansion
rows = [
    ("CCC(O)CC", "0.00097 1/K"),
    ("CCCCCCCCCCO", "0.000784 1/K"),
    ("CCCC(C)O (stereo unspecified)", "0.000956 1/K"),
    ("CCCCCCCCO", "0.000801 1/K"),
    ("CCCO", "0.000948 1/K"),
]

Query: Give its isobaric coefficient of expansion value. Item: CCCCCN
Response: 0.00108 1/K

Query: Give its isobaric coefficient of expansion value. Item: CCCCCCO
Response: 0.000834 1/K

Query: Give its isobaric coefficient of expansion value. Item: CCCCCO
Response: 0.00086 1/K

Query: Give its isobaric coefficient of expansion value. Item: CCCCCCCO
Response: 0.000813 1/K

Query: Give its isobaric coefficient of expansion value. Item: CCO
Response: 0.00102 1/K

Query: Give its isobaric coefficient of expansion value. Item: CCCCCCCCCO
Response: 0.000792 1/K

====

assay: isobaric coefficient of expansion; settings: 318.15 K; 50000 kPa; Liquid; DSC with Pressure Shift
Measured metric: isobaric coefficient of expansion

As a guide, the following entries are already answered.
# Molecule, Experimental result
data = [
    ("CCCCCCCCO [octan-1-ol]", "0.000698 1/K"),
    ("CCCO [propan-1-ol]", "0.000822 1/K"),
    ("CCCCCO [pentan-1-ol]", "0.000745 1/K"),
    ("CCCC(C)O (stereo unspecified) [pentan-2-ol]", "0.000841 1/K"),
    ("CCCCCN [1-pentanamine]", "0.000928 1/K"),
]

Query: Give its isobaric coefficient of expansion value. Item: CCCCCCCCCCO [decan-1-ol]
Response: 0.000688 1/K

Query: Give its isobaric coefficient of expansion value. Item: CCCCCCCO [heptan-1-ol]
Response: 0.000714 1/K

Query: Give its isobaric coefficient of expansion value. Item: CCCCCCCCCO [nonan-1-ol]
Response: 0.00069 1/K

Query: Give its isobaric coefficient of expansion value. Item: CCCCCCO [hexan-1-ol]
Response: 0.000729 1/K

Query: Give its isobaric coefficient of expansion value. Item: CCO [ethanol]
Response: 0.000882 1/K

Query: Give its isobaric coefficient of expansion value. Item: CCC(O)CC [3-pentanol]
Response: 0.000879 1/K
